Numbers sourced from patent US20260184663A1.

System: A431 (epidermoid carcinoma)
Experiment: Antiproliferative activity (CCK-8 cell viability), A431
Type: cell-based
Conditions: Homo sapiens, A-431, Compound concentration: 10 μM, 72 h, read-out: Antiproliferative activity in cancerous cells, A431 (inhibition of cell growth)
Provide the recorded inhibition at 10 µM for the entries that follow.

Reference set, count: 4
Data request: What does the record list as inhibition at 10 µM for CC1=C(CC(=O)O)c2cc(F)ccc2/C1=C\c1cccc(Oc2ccc(Br)cc2)c1 [C97] ?
Data returned: < 30%

Data request: Give the measured inhibition at 10 µM of CC1=C(CC(=O)O)c2cc(F)ccc2/C1=C\c1cccc(S(=O)(=O)c2ccc(F)cc2)c1 [C44] .
Data returned: 30 to 50%

Data request: Quick one: inhibition at 10 µM of O=C(O)CC1=C/C(=C/c2ccc(COc3ccccc3)cc2)c2ccc(F)cc21 [B3] ?
Data returned: 30 to 50%

Data request: Look up inhibition at 10 µM: CC1=C(CC(=O)O)c2cc(F)ccc2/C1=C\c1ccc(Oc2ccc(Cl)nc2)cc1 [C65]
Data returned: ≥ 50%

Please supply inhibition at 10 µM for each of the following items, keeping them in order.
1. COc1ccc(S(=O)(=O)c2ccc(/C=C3/C(C)=C(CC(=O)O)c4cc(F)ccc43)cc2)cc1 [C41]
2. CC1=C(CC(=O)O)c2cc(F)ccc2/C1=C\c1ccc(COCc2ccc(Cl)cc2)cc1 [B103]
3. CC1=C(CC(O)CO)c2ccccc2/C1=C\c1ccc(Oc2ccc(F)cc2)cc1 (stereo not drawn) [A203]
4. CC1=C(CC(=O)O)c2cc(F)ccc2/C1=C\c1ccc(CO)cc1 [D11]
5. COc1cc(Oc2cccc(/C=C3/C(C)=C(CC(=O)O)c4cc(F)ccc43)c2)ccc1Cl [C107]
6. CC1=C(CC(=O)O)c2c(F)ccc(F)c2/C1=C/c1ccc(C(F)(F)F)cc1 [E15]
7. CC1=C(CC(=O)O)c2cc(C)ccc2/C1=C\c1ccc(COc2ccc(C(F)(F)F)cc2)cc1 [B59]
8. CC1=C(CC(=O)O)c2cc(Cl)c(Cl)cc2/C1=C\c1ccc(Oc2ccc(F)cc2)cc1 [C83]

Data returned:
["≥ 50%", "≥ 50%", "≥ 50%", "≥ 50%", "≥ 50%", "< 30%", "≥ 50%", "≥ 50%"]

====

Test system: A431 (epidermoid carcinoma)
Assay: Antiproliferative activity (CCK-8 cell viability), A431
Assay type: cell-based
Settings: Homo sapiens, A-431, Compound concentration: 10 μM, 72 h, read-out: Antiproliferative activity in cancerous cells, A431 (inhibition of cell growth)
Could you please report measured inhibition at 10 µM for the items listed next?

Worked set:
Data request: What reported inhibition at 10 µM corresponds to CC1=C(CC(=O)O)c2cc(F)ccc2/C1=C\c1cccc(CS(=O)(=O)c2ccc(F)cc2)c1 on A431 (epidermoid carcinoma)?
Data returned: 30 to 50%

Data request: Query for A431 (epidermoid carcinoma): what inhibition at 10 µM does the record show for CC1=C(CC(=O)O)c2cc(F)ccc2/C1=C\c1ccc(Oc2ccc(Cl)cc2)cc1O ?
Data returned: ≥ 50%

Data request: Identify the measured inhibition at 10 µM of CC1=C(CC(=O)O)c2cc(F)ccc2/C1=C\c1ccc(Oc2ccc(Cl)cc2)cc1Cl for A431 (epidermoid carcinoma).
Data returned: ≥ 50%

Data request: API: value(readout=inhibition at 10 µM, system=A431 (epidermoid carcinoma)) for record CCc1ccc2c(c1)/C(=C\c1ccc(COc3ccccc3)cc1)C(C)=C2CC(=O)O
Data returned: ≥ 50%

Data request: A431 (epidermoid carcinoma) / inhibition at 10 µM / CC(=O)CC(=O)N1CCC(Oc2ccc(/C=C3/C(C)=C(CC(=O)O)c4cc(F)ccc43)cc2)CC1 : value?
Data returned: ≥ 50%

Go through the list and state inhibition at 10 µM for each entry.
1. CCc1ccc2c(c1)C(CC(=O)O)=C(C)/C2=C/c1ccc(COc2ccc(C(F)(F)F)cc2)cc1
2. CC1=C(CC(=O)O)c2cc(F)c(F)cc2/C1=C/c1ccc(Oc2ccc(F)cc2)cc1
3. CC1=C(CC(=O)O)c2ccc(F)cc2/C1=C\c1cccc(COc2ccccc2)c1
4. COc1ccc(CCCc2ccc(/C=C3/C(C)=C(CC(=O)O)c4cc(Br)ccc43)cc2)cc1
5. CC1=C(CC(=O)O)c2cc(I)ccc2/C1=C\c1ccc(Oc2ccc(F)cc2)cc1
6. COc1cc(COCc2ccc(/C=C3/C(C)=C(CC(=O)O)c4cc(F)ccc43)cc2)ccc1F
7. CC1=C(CC(=O)O)c2cc(F)ccc2/C1=C\c1cccc(Oc2ccc(C)cc2)c1
8. CC1=C(CC(=O)O)c2cc(F)cc(F)c2/C1=C/c1ccc(COc2ccccc2)cc1 [E2]

Data returned:
["≥ 50%", "≥ 50%", "≥ 50%", "≥ 50%", "≥ 50%", "≥ 50%", "≥ 50%", "≥ 50%"]
